Ref: ChEMBL document CHEMBL4371092

- Tested on: Human immunodeficiency virus 1
- assay.comment: Antiviral activity against HIV1 3B infected in human MT4 cells assessed as reduction in virus-induced cytopathic effect by measuring number of syncytia after 3 days by inverted microscopic method
- Format: functional, organism-based
- cond: Human immunodeficiency virus 1, 3B, MT4, 72 h
property.label: pEC50
Give bare numbers, as −log10 of the molar value.

Answered examples (2):
> print(dat)
                                   compound                     system.name  property.label  recorded.result
1  C[C@@H]1CC[C@@]2(C)C(C(=O)O)=CCC[C@@H]2[C@@]1(C)CC/C(=C\C(=O)O)C(=O)O  Human immunodeficiency virus 1           pEC50             4.70
2  CO[C@@H]1OC(=O)C=C1CC[C@@]1(C)[C@H](C)CC[C@@]2(C)C(C)=C(C=O)C[C@H]12  Human immunodeficiency virus 1           pEC50             4.77

With those in mind, consider the next compound.
**Q:** Which pEC50 is reported for this compound? Cc1cn([C@H]2C[C@H](N=[N+]=[N-])[C@@H](CO)O2)c(=O)[nH]c1=O [ZIDOVUDINE]
**A:** 7.70

----------
Assignment: determine reported CC50 at 72 h for the given compounds.
- assay.comment: Cytotoxicity against human C8166 cells after 72 hrs by MTT assay
- Format: cell-based

> print(dat)
                               smiles.entry  recorded.result
1  C[C@@H]1CC[C@@]2(C)C(C(=O)O)=CCC[C@@H]2[C@@]1(C)CC/C(=C\C(=O)O)C(=O)O         > 200 µM

Would you be so kind as to report CC50 at 72 h for each listed record?
1. CC1=C(C(=O)O)C[C@@H]2[C@@](C)(CC/C(=C/C(=O)O)CO)[C@H](C)CC[C@@]12C
2. CC1=CC(=O)C[C@@H]2[C@@](C)(CC/C(=C\C(=O)O)C(=O)O)[C@H](C)CC[C@@]12C
3. CC(=O)[C@]1(C)CC[C@@H](C)[C@](C)(CC/C(C)=C/C(=O)O)[C@H]1CC(=O)O
4. C/C(=C\C(=O)O)CC[C@@]1(C)[C@H](C)CC[C@]2(C)[C@@H]1CC[C@@H](O)[C@]2(C)O
5. Cc1cn([C@H]2C[C@H](N=[N+]=[N-])[C@@H](CO)O2)c(=O)[nH]c1=O

**A:**
["> 200 µM", "> 200 µM", "> 200 µM", "> 200 µM", "5230 µM"]

**Q:** Which CC50 at 72 h is reported for this compound? CO[C@@H]1OC(=O)C=C1CC[C@@]1(C)[C@H](C)CC[C@@]2(C)C(C)=C(C=O)C[C@H]12
**A:** > 200 µM
